Items are presented alongside their recorded viability, T/C.
# Test system: NCI-H23 complex spheroids with HUVEC/MSC, viability
# test protocol: Anticancer human tumor NCI-H23 cell line growth inhibition [RAS];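 note: spheroids exposed to compound for 7 days; 100% = DMSO vehicle control viability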
# condition details: second compound 0.3 µM; first compound 1 µM; stronger effect = lower value
Please reply with the bare figure in % and do not write the unit itself.

{"columns": ["compound", "output unit", "viability, T/C"],
 "data": [
  ["CCN1CCN(Cc2ccc(Nc3ncc(F)c(-c4cc(F)c5nc(C)n(C(C)C)c5c4)n3)nc2)CC1 + CCn1c(-c2cccnc2C(C)OC)c2c3cc(ccc31)N1CCOC(CC(NC(=O)C(C(C)C)N(C)C(=O)C3(F)CCN(C(=O)C#CC(C)(C)N(C)C)CC3)C(=O)N3CCCC(N3)C(=O)OCC(C)(C)C2)C1", "%", 14.2]
]}

Here is the next item to consider.
CC(Nc1ccc2c(c1)OCCn1cc(N3C(=O)OCC3C(F)F)nc1-2)C(N)=O (configuration not stated) + CCn1c(-c2cccnc2C(C)OC)c2c3cc(ccc31)N1CCOC(CC(NC(=O)C(C(C)C)N(C)C(=O)C3(F)CCN(C(=O)C#CC(C)(C)N(C)C)CC3)C(=O)N3CCCC(N3)C(=O)OCC(C)(C)C2)C1 yielded viability, T/C of 15

----------
# Tested on: NCI-H23 complex spheroids with HUVEC/MSC, viability
# test protocol: Anticancer human tumor NCI-H23 cell line growth inhibition [RAS];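 note: spheroids exposed to compound for 7 days; 100% = DMSO vehicle control viability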
# condition details: second compound 0.0316 µM; first compound 0.01 µM; stronger effect = lower value
attribute measured: viability, T/C

Consider the reported viability, T/C for these compounds:
{"columns": ["compound", "system name", "viability, T/C"],
 "data": [
  ["CCN1CCN(Cc2ccc(Nc3ncc(F)c(-c4cc(F)c5nc(C)n(C(C)C)c5c4)n3)nc2)CC1 + C#Cc1c(F)ccc2cc(O)cc(-c3ncc4c(N5CC6CCC(C5)N6)nc(OCC56CCCN5CC(F)C6)nc4c3F)c12", "NCI-H23 complex spheroids with HUVEC/MSC, viability", "102%"],
  ["Nc1ccn(C2OC(CO)C(O)C2(F)F)c(=O)n1 (stereo not given) + C=CC(=O)N1CCN(c2nc(OCC3CCCN3C)nc3c(F)c(-c4nc(N)cc(C)c4C(F)(F)F)c(Cl)cc23)C(C)C1", "NCI-H23 complex spheroids with HUVEC/MSC, viability", "3.04%"],
  ["C=CC(=O)Nc1cc(Nc2nccc(-c3cn(C)c4ccccc34)n2)c(OC)cc1N(C)CCN(C)C + C=CC(=O)N1CCN(c2nc(OCC3CCCN3C)nc3c(F)c(-c4nc(N)cc(C)c4C(F)(F)F)c(Cl)cc23)C(C)C1", "NCI-H23 complex spheroids with HUVEC/MSC, viability", "48.3%"]
]}

Nc1ccn(C2OC(CO)C(O)C2(F)F)c(=O)n1 (stereo not given) + C#Cc1c(F)ccc2cc(O)cc(-c3ncc4c(N5CC6CCC(C5)N6)nc(OCC56CCCN5CC(F)C6)nc4c3F)c12 yielded viability, T/C of 19.3%

CC(C)n1nc(-c2ccc3oc(N)nc3c2)c2c(N)ncnc21 + C=CC(=O)N1CCN(c2nc(OCC3CCCN3C)nc3c(F)c(-c4nc(N)cc(C)c4C(F)(F)F)c(Cl)cc23)C(C)C1 yielded viability, T/C of 26.2%

----------
# System: NCI-H23 complex spheroids with HUVEC/MSC, viability
# test protocol: Anticancer human tumor NCI-H23 cell line growth inhibition [RAS]; active means viability on the fitted dose curve at most 10% of control; inactive means the rest;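 note: spheroids exposed to compound for 7 days; 100% = DMSO vehicle control viability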
# condition details: second compound 0.00949 µM; first compound 0.00949 µM
A correct response names exactly one class from 1 (active), -1 (inactive)

Use these answered entries as a reference point.
{"columns": ["molecule", "category label"],
 "data": [
  ["CCc1c2c(nc3ccc(O)cc13)-c1cc3c(c(=O)n1C2)COC(=O)[C@]3(O)CC + CCn1c(-c2cccnc2C(C)OC)c2c3cc(ccc31)N1CCOC(CC(NC(=O)C(C(C)C)N(C)C(=O)C3(F)CCN(C(=O)C#CC(C)(C)N(C)C)CC3)C(=O)N3CCCC(N3)C(=O)OCC(C)(C)C2)C1", 1],
  ["CC1(C)CCC(Nc2ncc(C(F)(F)F)c(-c3c[nH]c4c(P(C)(C)=O)c(C#N)ccc34)n2)CN1 (centres undefined) + CCn1c(-c2cc(N3CCN(C)CC3)cnc2C(C)OC)c2c3cc(ccc31)-c1csc(n1)CC(NC(=O)C1CC1C)C(=O)N1CCCC(N1)C(=O)OCC(C)(C)C2", -1],
  ["CCc1c2c(nc3ccc(O)cc13)-c1cc3c(c(=O)n1C2)COC(=O)[C@]3(O)CC + CCn1c(-c2cc(N3CCN(C)CC3)cnc2C(C)OC)c2c3cc(ccc31)-c1csc(n1)CC(NC(=O)C1CC1C)C(=O)N1CCCC(N1)C(=O)OCC(C)(C)C2", 1]
]}

Query string: In this assay, the call recorded for CC1(C)CCC(Nc2ncc(C(F)(F)F)c(-c3c[nH]c4c(P(C)(C)=O)c(C#N)ccc34)n2)CN1 (centres undefined) + CCn1c(-c2cccnc2C(C)OC)c2c3cc(ccc31)N1CCOC(CC(NC(=O)C(C(C)C)N(C)C(=O)C3(F)CCN(C(=O)C#CC(C)(C)N(C)C)CC3)C(=O)N3CCCC(N3)C(=O)OCC(C)(C)C2)C1 was what?
Result string: -1

----------
# Test system: NCI-H23 complex spheroids with HUVEC/MSC, viability
# test protocol: Anticancer human tumor NCI-H23 cell line growth inhibition [RAS]; active = viability on the fitted dose curve at most 10% of control; inactive = the rest;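 note: spheroids exposed to compound for 7 days; 100% = DMSO vehicle control viability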
# condition details: second compound 1 µM; first compound 0.3 µM
A correct response names exactly one class from y for active, n for inactive

{"columns": ["molecule", "category label"],
 "data": [
  ["CC1(C)CCC(Nc2ncc(C(F)(F)F)c(-c3c[nH]c4c(P(C)(C)=O)c(C#N)ccc34)n2)CN1 (centres undefined) + C=CC(=O)N1CCN(c2nc(OCC3CCCN3C)nc3c(F)c(-c4nc(N)cc(C)c4C(F)(F)F)c(Cl)cc23)C(C)C1", "n"]
]}

Query string: In this assay, the call recorded for CCc1c2c(nc3ccc(O)cc13)-c1cc3c(c(=O)n1C2)COC(=O)[C@]3(O)CC + C#Cc1c(F)ccc2cc(O)cc(-c3ncc4c(N5CC6CCC(C5)N6)nc(OCC56CCCN5CC(F)C6)nc4c3F)c12 was what?
Result string: y

Query string: In this assay, the call recorded for CC1(C)CCC(Nc2ncc(C(F)(F)F)c(-c3c[nH]c4c(P(C)(C)=O)c(C#N)ccc34)n2)CN1 (centres undefined) + C#Cc1c(F)ccc2cc(O)cc(-c3ncc4c(N5CC6CCC(C5)N6)nc(OCC56CCCN5CC(F)C6)nc4c3F)c12 was what?
Result string: n

Query string: In this assay, the call recorded for CCc1c2c(nc3ccc(O)cc13)-c1cc3c(c(=O)n1C2)COC(=O)[C@]3(O)CC + C=CC(=O)N1CCN(c2nc(OCC3CCCN3C)nc3c(F)c(-c4nc(N)cc(C)c4C(F)(F)F)c(Cl)cc23)C(C)C1 was what?
Result string: y

----------
# Tested on: NCI-H23 complex spheroids with HUVEC/MSC, viability
# test protocol: Anticancer human tumor NCI-H23 cell line growth inhibition [RAS]; active = viability on the fitted dose curve at most 10% of control; inactive = the rest;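 note: spheroids exposed to compound for 7 days; 100% = DMSO vehicle control viability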
# condition details: second compound 0.3 µM; first compound 0.0316 µM
A correct response names exactly one class from 1 for active, -1 for inactive

Use these answered entries as a reference point.
{"columns": ["molecule", "category label"],
 "data": [
  ["CC(C)n1nc(-c2ccc3oc(N)nc3c2)c2c(N)ncnc21 + CCn1c(-c2cccnc2C(C)OC)c2c3cc(ccc31)N1CCOC(CC(NC(=O)C(C(C)C)N(C)C(=O)C3(F)CCN(C(=O)C#CC(C)(C)N(C)C)CC3)C(=O)N3CCCC(N3)C(=O)OCC(C)(C)C2)C1", -1],
  ["O=C(c1ccc(F)c(F)c1Nc1ccc(I)cc1F)N1CC(O)([C@@H]2CCCCN2)C1 + CCn1c(-c2cc(N3CCN(C)CC3)cnc2C(C)OC)c2c3cc(ccc31)-c1csc(n1)CC(NC(=O)C1CC1C)C(=O)N1CCCC(N1)C(=O)OCC(C)(C)C2", 1],
  ["Nc1ccn(C2OC(CO)C(O)C2(F)F)c(=O)n1 (centres undefined) + CCn1c(-c2cccnc2C(C)OC)c2c3cc(ccc31)N1CCOC(CC(NC(=O)C(C(C)C)N(C)C(=O)C3(F)CCN(C(=O)C#CC(C)(C)N(C)C)CC3)C(=O)N3CCCC(N3)C(=O)OCC(C)(C)C2)C1", 1]
]}

Next up:
Query string: In this assay, the call recorded for CC1(O)CCCC1n1c(=O)c(C(F)F)cc2cnc(NC3CCN(S(C)(=O)=O)CC3)nc21 (centres undefined) + CCn1c(-c2cc(N3CCN(C)CC3)cnc2C(C)OC)c2c3cc(ccc31)-c1csc(n1)CC(NC(=O)C1CC1C)C(=O)N1CCCC(N1)C(=O)OCC(C)(C)C2 was what?
Result string: -1

----------
# System: NCI-H23 complex spheroids with HUVEC/MSC, viability
# test protocol: Anticancer human tumor NCI-H23 cell line growth inhibition [RAS];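 note: spheroids exposed to compound for 7 days; 100% = DMSO vehicle control viability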
# condition details: second compound 0.000949 µM; first compound 0.01 µM; stronger effect = lower value
attribute measured: viability, T/C (%)
Please reply with the bare figure in % and do not write the unit itself.

{"columns": ["molecule", "viability, T/C [%]"],
 "data": [
  ["C=CC(=O)Nc1cc(Nc2nccc(-c3cn(C)c4ccccc34)n2)c(OC)cc1N(C)CCN(C)C + CCn1c(-c2cc(N3CCN(C)CC3)cnc2C(C)OC)c2c3cc(ccc31)-c1csc(n1)CC(NC(=O)C1CC1C)C(=O)N1CCCC(N1)C(=O)OCC(C)(C)C2", 45.7]
]}

Here is the next item to consider.
CC(C)n1nc(-c2ccc3oc(N)nc3c2)c2c(N)ncnc21 + CCn1c(-c2cc(N3CCN(C)CC3)cnc2C(C)OC)c2c3cc(ccc31)-c1csc(n1)CC(NC(=O)C1CC1C)C(=O)N1CCCC(N1)C(=O)OCC(C)(C)C2 yielded viability, T/C of 30
